Where do these numbers come from? They come from patent US6949516B2.

SYSTEM_TESTED: Thrombin (Homo sapiens)
OBSERVED_PROPERTY: IC50

- COMPOUND: "COC(=O)CC(NC(=O)C(NC(=O)OCc1ccccc1)C(C)C)C(=O)CF (centres unmarked)"
  MEASURED_RESULT: "> 100 µM"

// next entry
Form field - read-out: IC50; system: Thrombin (Homo sapiens); submitted item: CC(C)[C@H](NC(=O)OCc1ccccc1)C(=O)NC(CC(=O)O)C(=O)CF (some centres unmarked)
> 100 µM

---

System: PARP cleavage in Jurkat cells
PROTOCOL: Inhibition of PARP cleavage in antiFas-treated Jurkat cells (Example 22, Western blot)
Type: cell-based, human
TEST_CONTEXT: 50 μM, antiFas-treated Jurkat cells
Where a SMILES comes first, the peptide text is derived from it. The star is where a group is joined. Cbz = O=C(OCc1ccccc1)*; CH2F = FC*
OBSERVED_PROPERTY: inhibition of PARP cleavage

- COMPOUND: "COC(=O)CC(NC(=O)OC(C)(C)C)C(=O)CF (stereo not shown)"
  MEASURED_RESULT: "effective inhibitors"
- COMPOUND: "COC(=O)C[C@H](NC(=O)[C@H](C)NC(=O)[C@@H](NC(=O)OCc1ccccc1)C(C)C)C(=O)CF [Cbz-Val-Ala-Asp(OMe)-CH2F] (Cbz-Val-Ala-Asp(OMe)-CH2F)"
  MEASURED_RESULT: "effective inhibitors"
- COMPOUND: "COC(=O)CC[C@H](NC(=O)OCc1ccccc1)C(=O)N[C@H](C(=O)N[C@@H](CC(=O)OC)C(=O)CF)C(C)C"
  MEASURED_RESULT: "effective inhibitors"
